experimental protocol: Drug concentration in CB17 SCID mouse plasma xenografted with human VCaP cells at 12.5 mg/kg, po measured after 24 hrs by LC-MS/MS analysis
Type: ADME, organism-based
outcome measure: concentration at 24 h (ng/mL)
Express the result in ng/mL but write the number alone.

QUERY: Would you mind telling me what concentration at 24 h value was observed for C[C@H]1CC2(CCN(c3ccc(C(=O)N4CCN(C5CN(c6ccc7c(c6)C(=O)N(C6CCC(=O)NC6=O)C7=O)C5)CC4)cc3)CC2)CN1c1ccc(C#N)c(Cl)c1 (stereo partly specified) ?
RESULT: 742

----------
assayed system: Androgen receptor (Homo sapiens)
Sequence (P10275 whole entry): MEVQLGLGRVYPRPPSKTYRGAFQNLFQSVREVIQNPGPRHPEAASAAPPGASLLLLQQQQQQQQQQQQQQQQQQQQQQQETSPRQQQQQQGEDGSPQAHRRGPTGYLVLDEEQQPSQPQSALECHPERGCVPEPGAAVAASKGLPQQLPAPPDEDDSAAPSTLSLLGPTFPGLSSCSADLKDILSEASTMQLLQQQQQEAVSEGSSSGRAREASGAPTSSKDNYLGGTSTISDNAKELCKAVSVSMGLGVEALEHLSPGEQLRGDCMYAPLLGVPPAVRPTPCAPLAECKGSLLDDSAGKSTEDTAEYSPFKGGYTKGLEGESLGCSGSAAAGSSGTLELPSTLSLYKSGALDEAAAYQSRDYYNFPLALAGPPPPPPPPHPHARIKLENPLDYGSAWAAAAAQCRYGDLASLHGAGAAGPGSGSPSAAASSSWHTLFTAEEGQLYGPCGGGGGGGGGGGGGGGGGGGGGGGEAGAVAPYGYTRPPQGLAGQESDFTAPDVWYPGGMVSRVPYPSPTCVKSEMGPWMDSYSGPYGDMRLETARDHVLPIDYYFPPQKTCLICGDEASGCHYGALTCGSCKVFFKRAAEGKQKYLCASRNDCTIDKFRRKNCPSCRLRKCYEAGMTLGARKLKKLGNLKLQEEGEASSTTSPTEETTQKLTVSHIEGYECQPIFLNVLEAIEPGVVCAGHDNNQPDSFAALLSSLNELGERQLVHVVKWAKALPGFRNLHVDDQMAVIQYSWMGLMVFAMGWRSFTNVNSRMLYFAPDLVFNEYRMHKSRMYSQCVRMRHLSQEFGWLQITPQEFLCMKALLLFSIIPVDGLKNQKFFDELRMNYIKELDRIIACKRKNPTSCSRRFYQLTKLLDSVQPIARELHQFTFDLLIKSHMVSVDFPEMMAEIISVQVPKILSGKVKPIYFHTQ
experimental protocol: Induction of androgen receptor degradation in human VCaP cells at 0.1 uM after 24 hrs by Western blotting analysis relative to control
Assay type: cell-based
The entries below are paired with their reported Activity.
Numbers only; they are read as %.

• C[C@H]1CC2(CCN(c3ccc(C(=O)N4CCC(C5CN(c6ccc7c(c6)C(=O)N(C6CCC(=O)NC6=O)C7=O)C5)CC4)cc3)CC2)CN1c1ccc(C#N)c(Cl)c1 (stereo partly specified) = 64
• N#Cc1ccc(N2CCC3(CCN(c4ccc(C(=O)N5CCCN(C6CCN(c7ccc8c(c7)C(=O)N(C7CCC(=O)NC7=O)C8=O)CC6)CC5)cc4)CC3)C2)cc1Cl (stereo unspecified) = 80

Moving on to another compound below.
QUERY: Requested read-out: Activity. Entry: C[C@H]1CC2(CCN(c3ccc(C(=O)N4CCN(C5(C#N)CN(c6ccc7c(c6)C(=O)N(C6CCC(=O)NC6=O)C7=O)C5)CC4)cc3)CC2)CN1c1ccc(C#N)c(Cl)c1 (stereo partly specified)
RESULT: 93

----------
assayed system: Cytochrome P450 2B6 (Homo sapiens)
Sequence (P20813 whole entry): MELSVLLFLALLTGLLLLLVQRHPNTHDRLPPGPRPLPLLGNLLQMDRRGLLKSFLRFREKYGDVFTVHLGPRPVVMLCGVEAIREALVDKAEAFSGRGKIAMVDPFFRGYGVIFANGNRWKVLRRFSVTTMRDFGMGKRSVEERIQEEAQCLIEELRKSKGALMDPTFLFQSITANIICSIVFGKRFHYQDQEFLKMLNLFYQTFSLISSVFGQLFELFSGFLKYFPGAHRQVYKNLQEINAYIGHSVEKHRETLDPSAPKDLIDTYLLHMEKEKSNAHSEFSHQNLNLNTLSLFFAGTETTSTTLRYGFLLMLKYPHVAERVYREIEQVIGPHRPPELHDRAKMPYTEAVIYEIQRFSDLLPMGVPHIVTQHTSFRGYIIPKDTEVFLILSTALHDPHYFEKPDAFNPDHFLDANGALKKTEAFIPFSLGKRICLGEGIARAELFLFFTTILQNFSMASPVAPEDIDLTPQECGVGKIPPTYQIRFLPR
outcome measure: IC50

QUERY: Lab note: need IC50 for C[C@H]1CC2(CCN(c3ccc(C(=O)N4CCN(C5CN(c6ccc7c(c6)C(=O)N(C6CCC(=O)NC6=O)C7=O)C5)CC4)cc3)CC2)CN1c1ccc(C#N)c(Cl)c1 (stereo partly specified) on Cytochrome P450 2B6 (Homo sapiens), anyone have it?
RESULT: > 10 µM

----------
assayed system: Voltage-gated inwardly rectifying potassium channel KCNH2 (Homo sapiens)
Sequence (Q12809 whole entry): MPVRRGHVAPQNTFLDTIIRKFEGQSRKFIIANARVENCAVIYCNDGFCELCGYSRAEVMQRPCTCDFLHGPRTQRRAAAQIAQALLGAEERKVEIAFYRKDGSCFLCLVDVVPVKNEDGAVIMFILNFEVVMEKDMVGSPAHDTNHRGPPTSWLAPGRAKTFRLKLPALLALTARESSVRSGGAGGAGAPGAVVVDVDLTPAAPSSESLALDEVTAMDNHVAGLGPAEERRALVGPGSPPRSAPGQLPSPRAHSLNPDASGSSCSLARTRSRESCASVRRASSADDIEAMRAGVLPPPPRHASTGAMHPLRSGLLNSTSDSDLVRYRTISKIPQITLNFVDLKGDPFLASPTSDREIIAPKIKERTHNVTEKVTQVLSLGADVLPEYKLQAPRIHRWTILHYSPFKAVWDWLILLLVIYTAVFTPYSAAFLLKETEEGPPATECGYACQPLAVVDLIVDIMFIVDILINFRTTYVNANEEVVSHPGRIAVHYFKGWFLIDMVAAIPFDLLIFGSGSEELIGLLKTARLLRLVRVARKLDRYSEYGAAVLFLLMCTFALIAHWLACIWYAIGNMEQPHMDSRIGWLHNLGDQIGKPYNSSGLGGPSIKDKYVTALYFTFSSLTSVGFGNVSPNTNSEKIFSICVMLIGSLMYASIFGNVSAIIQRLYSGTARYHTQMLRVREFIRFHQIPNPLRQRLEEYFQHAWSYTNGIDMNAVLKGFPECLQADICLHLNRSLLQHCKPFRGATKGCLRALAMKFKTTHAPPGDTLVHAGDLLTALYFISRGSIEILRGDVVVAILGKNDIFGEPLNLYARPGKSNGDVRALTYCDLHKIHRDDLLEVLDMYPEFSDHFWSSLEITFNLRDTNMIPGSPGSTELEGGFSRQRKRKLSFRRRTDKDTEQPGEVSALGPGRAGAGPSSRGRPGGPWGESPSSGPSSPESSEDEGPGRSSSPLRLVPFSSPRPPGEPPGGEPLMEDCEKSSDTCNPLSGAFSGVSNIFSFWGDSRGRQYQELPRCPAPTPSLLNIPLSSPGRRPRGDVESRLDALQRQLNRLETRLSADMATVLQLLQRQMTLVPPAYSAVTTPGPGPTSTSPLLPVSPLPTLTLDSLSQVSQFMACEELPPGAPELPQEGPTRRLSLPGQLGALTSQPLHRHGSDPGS
experimental protocol: Inhibition of human ERG expressed in HEK293 cells by whole cell patch clamp assay
outcome measure: IC50

QUERY: Request the reported IC50 associated with C[C@H]1CC2(CCN(c3ccc(C(=O)N4CCN(C5CN(c6ccc7c(c6)C(=O)N(C6CCC(=O)NC6=O)C7=O)C5)CC4)cc3)CC2)CN1c1ccc(C#N)c(Cl)c1 (stereo partly specified)
RESULT: > 30 µM

----------
experimental protocol: Drug concentration in ICR mouse plasma at 10 mg/kg, po measured after 6 hrs
Type: ADME, organism-based
Please assign not fulfilled whenever concentration at 6 h is at or above 100 ng/mL, and fulfilled whenever it is below.

QUERY: Determine whether this compound shows concentration at 6 h lower than 100 ng/mL (ties excluded): C[C@H]1CC2(CCN(c3ccc(C(=O)N4CCN(C5CCN(c6ccc7c(c6)C(=O)N(C6CCC(=O)NC6=O)C7=O)CC5)CC4)cc3)CC2)CN1c1ccc(C#N)c(Cl)c1 (stereo partly specified)
RESULT: not fulfilled

QUERY: Is concentration at 6 h of N#Cc1ccc(O[C@H]2CC[C@H](NC(=O)c3ccc(N4CCC(CN5CCN(c6cc7c(cc6F)C(=O)N(C6CCC(=O)NC6=O)C7=O)CC5)CC4)nn3)CC2)cc1Cl (stereo partly specified) [BAVDEGALUTAMIDE] strictly below 100 ng/mL?
RESULT: not fulfilled

----------
experimental protocol: AUC(0 to t) in Beagle dog at 3 mg/kg, po measured up to 24 hrs by LC-MS/MS analysis
Format: ADME, organism-based, Canis lupus familiaris
Parameters: time < 24 hrs, dose 3 mg/kg, route po
stated conditions: in vivo
outcome measure: AUCt (ng·h/mL)
Expressed in ng·h/mL, but write only the number.

QUERY: What does the data say about its AUCt? Entry: C[C@H]1CC2(CCN(c3ccc(C(=O)N4CCN(C5CN(c6ccc7c(c6)C(=O)N(C6CCC(=O)NC6=O)C7=O)C5)CC4)cc3)CC2)CN1c1ccc(C#N)c(Cl)c1 (stereo partly specified)
RESULT: 4460

----------
Here we list molecules with their recorded pIC50 when tested on Androgen receptor (Homo sapiens).
Value format note: pIC50 is -log10 of concentration (mol/L); just state the number.

Worked cases, pIC50 given:
* CN1CCN(c2ccc(C(=O)N3CCC4(CC3)CCN(c3ccc(C#N)c(Cl)c3)C4)cc2)CC1 | 6.10
* CN1CCN(C(=O)c2ccc(N3CCC4(CC3)CCN(c3ccc(C#N)c(Cl)c3)C4)cc2)CC1 | 7.11

Next molecule, please.
QUERY: Find the measured pIC50: item N#Cc1ccc(N2CCC3(CCN(C(=O)c4ccccc4)CC3)C2)cc1Cl , target or system Androgen receptor (Homo sapiens).
RESULT: 5.77

----------
experimental protocol: Drug concentration in CB17 SCID mouse tumor xenografted with human VCaP cells at 12.5 mg/kg, po measured after 6 hrs by LC-MS/MS analysis
Assay type: ADME, organism-based, Neoplasm
stated conditions: read-out: Ct
outcome measure: concentration at 6 h (ng/mL)
Number in ng/mL, nothing else.

QUERY: Query (compound): C[C@H]1CC2(CCN(c3ccc(C(=O)N4CCN(C5CN(c6ccc7c(c6)C(=O)N(C6CCC(=O)NC6=O)C7=O)C5)CC4)cc3)CC2)CN1c1ccc(C#N)c(Cl)c1 (stereo partly specified) ; field requested: concentration at 6 h
RESULT: 946

----------
assayed system: UniProt P10275
experimental protocol: Induction of androgen receptor degradation in human VCaP cells at 1 uM after 24 hrs by Western blotting analysis relative to control
Format: cell-based
Below: a set of entries, each annotated with reported Activity.

Some solved entries appear below for comparison.
- N#Cc1ccc(N2CCC3(CCN(c4ccc(C(=O)N5CCCN(C6CCN(c7ccc8c(c7)C(=O)N(C7CCC(=O)NC7=O)C8=O)CC6)CC5)cc4)CC3)C2)cc1Cl (configuration not stated): 92%
- C[C@H]1CC2(CCN(c3ccc(C(=O)N4CCN(C5CN(c6ccc7c(c6)C(=O)N(C6CCC(=O)NC6=O)C7=O)C5)CC4)cc3)CC2)CN1c1ccc(C#N)c(C(F)F)c1 (some centres not stated): > 95%
- C[C@H]1CC2(CCN(c3ccc(C(=O)N4CC(N5CCN(c6ccc7c(c6)C(=O)N(C6CCC(=O)NC6=O)C7=O)CC5)C4)cc3)CC2)CN1c1ccc(C#N)c(Cl)c1 (some centres not stated): > 95%

QUERY: May I ask what Activity has been recorded for C[C@H]1CC2(CCN(c3ccc(C(=O)N4CCN(C5CN(c6ccc7c(c6)C(=O)N(C6CCC(=O)NC6=O)C7=O)C5)CC4)cc3)CC2)CN1c1ccc(C#N)c(C(F)(F)F)c1 (some centres not stated) ?
RESULT: > 95%

QUERY: Report Activity for N#Cc1ccc(N2CCC3(CCN(c4ccc(C(=O)N5CCN(C6CN(c7ccc8c(c7)C(=O)N(C7CCC(=O)NC7=O)C8=O)C6)CC5)cc4)CC3)C2)cc1Cl (configuration not stated) please.
RESULT: > 95%

QUERY: Name the reported Activity value associated with the molecule C[C@H]1CC2(CCN(c3ccc(C(=O)N4C[C@@H]5C[C@H]4CN5C4CN(c5ccc6c(c5)C(=O)N(C5CCC(=O)NC5=O)C6=O)C4)cc3)CC2)CN1c1ccc(C#N)c(Cl)c1 (some centres not stated)
RESULT: > 95%

QUERY: Data request, read-out Activity, for C[C@H]1CC2(CCN(c3ccc(C(=O)N4CCN(C5CCN(c6ccc7c(c6)C(=O)N(C6CCC(=O)NC6=O)C7=O)CC5)CC4)cc3)CC2)CN1c1ccc(C#N)c(Cl)c1 (some centres not stated)
RESULT: > 95%

QUERY: # lookup: Activity of C[C@H]1CC2(CCN(c3ccc(C(=O)N4CCN(C5CN(c6ccc7c(c6)C(=O)N(C6CCC(=O)NC6=O)C7=O)C5)CC4)cc3)CC2)CN1c1cnc(C#N)c(C(F)(F)F)c1 (some centres not stated)
RESULT: > 95%

Origin of the recorded values: ChEMBL document CHEMBL5331127
